Hello, the source for this data is patent US20190315854A1, in case you need it.

target.or.test.system: T1, sIL-6R (soluble IL-6 receptor; SBH Sciences) (human, UniProt P08887 20-365)
T1 construct: also called human IL-6R
T1 sequence: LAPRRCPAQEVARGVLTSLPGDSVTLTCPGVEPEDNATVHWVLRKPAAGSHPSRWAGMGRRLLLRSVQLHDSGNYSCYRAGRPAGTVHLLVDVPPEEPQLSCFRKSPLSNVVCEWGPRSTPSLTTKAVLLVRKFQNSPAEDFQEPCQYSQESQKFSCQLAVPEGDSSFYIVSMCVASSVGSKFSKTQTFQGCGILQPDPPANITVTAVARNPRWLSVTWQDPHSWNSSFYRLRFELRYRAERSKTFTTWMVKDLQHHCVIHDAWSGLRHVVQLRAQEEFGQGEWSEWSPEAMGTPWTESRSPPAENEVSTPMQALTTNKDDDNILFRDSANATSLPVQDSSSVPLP
assay.notes: SPR (BIAcore 3000), antibody on chip, sIL-6R analyte, pH 6.0
Listing of recorded Kd by entry.
Report the value in nM with no unit label.

Some entries whose results are on file:
binder="205# (antibody, human IgG1, kappa, V domains shown) VH: QVQLQESGPGLVRPSQTLSLTCTVSGYSITSDHAWSWVRQPPGRGLEWIGFISYSGMTTYNPSLKSRVTMLRDTSKNQFSLRLSSVTAADTAVYYCARCLARTTAMDYWGQGSLVTVSS VL: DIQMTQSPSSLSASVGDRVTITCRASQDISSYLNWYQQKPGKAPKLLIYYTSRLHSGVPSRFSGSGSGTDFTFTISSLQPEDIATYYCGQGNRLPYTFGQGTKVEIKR" units_of_measure=nM numeric_readout=0.056
binder="Tocilizumab (antibody, human IgG1, kappa, V domains shown, also called 25; 25(control)) VH: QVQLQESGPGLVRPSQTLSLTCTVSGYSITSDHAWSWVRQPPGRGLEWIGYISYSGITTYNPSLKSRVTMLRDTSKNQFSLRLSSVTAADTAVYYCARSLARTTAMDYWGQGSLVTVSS VL: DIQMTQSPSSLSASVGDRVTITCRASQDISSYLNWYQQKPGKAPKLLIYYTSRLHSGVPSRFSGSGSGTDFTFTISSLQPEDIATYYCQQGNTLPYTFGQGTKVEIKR" units_of_measure=nM numeric_readout=2
binder="206# (antibody, human IgG1, kappa, V domains shown, also called Sample # 206) VH: QVQLQESGPGLVRPSQTLSLTCTVSGYSITSDHAWSWVRQPPGRGLEWIGFISYSGMTTYNPSLKSRVTMLRDTSKNQFSLRLSSVTAADTAVYYCARSLARITAMDYWGQGSLVTVSS VL: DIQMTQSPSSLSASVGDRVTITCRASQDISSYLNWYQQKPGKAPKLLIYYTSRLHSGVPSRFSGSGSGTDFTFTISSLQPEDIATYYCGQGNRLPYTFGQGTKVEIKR" units_of_measure=nM numeric_readout=0.0213

As a next step, examine the binder that follows.
**Q:** Report Kd for 202# (antibody, human IgG1, kappa, V domains shown) VH: QVQLQESGPGLVRPSQTLSLTCTVSGYSITSDHAWSWVRQPPGRGLEWIGYISYSGITTYNPSLKSRVTMLRDTSKNQFSLRLSSVTAADTAVYYCARVLARITAMDYWGQGSLVTVSS VL: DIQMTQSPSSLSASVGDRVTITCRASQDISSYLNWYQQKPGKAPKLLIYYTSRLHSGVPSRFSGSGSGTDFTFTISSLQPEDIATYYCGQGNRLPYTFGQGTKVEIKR please.
**A:** 0.0214
